These measurements were taken from paper PMC9005681.

Molecular target: serotonin transporter (Homo sapiens)
Construct: expressed in transfected cells
Sequence (P31645 whole entry): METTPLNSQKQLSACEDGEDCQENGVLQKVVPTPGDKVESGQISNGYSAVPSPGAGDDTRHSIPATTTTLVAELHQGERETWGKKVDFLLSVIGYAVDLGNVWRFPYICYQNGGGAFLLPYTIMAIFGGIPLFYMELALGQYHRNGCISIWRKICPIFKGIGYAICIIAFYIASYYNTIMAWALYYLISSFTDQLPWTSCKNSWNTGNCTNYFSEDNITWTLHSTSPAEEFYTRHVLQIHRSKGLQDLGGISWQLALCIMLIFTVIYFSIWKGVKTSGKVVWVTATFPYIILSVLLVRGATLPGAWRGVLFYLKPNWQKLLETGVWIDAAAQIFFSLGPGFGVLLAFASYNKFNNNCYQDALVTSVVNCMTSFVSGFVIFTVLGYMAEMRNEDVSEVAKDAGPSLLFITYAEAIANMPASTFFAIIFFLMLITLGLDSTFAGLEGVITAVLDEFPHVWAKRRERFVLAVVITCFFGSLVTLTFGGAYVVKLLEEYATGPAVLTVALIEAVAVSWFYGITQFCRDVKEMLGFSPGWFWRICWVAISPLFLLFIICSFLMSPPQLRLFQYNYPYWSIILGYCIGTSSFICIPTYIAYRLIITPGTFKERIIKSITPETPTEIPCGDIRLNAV
Assay: PDSP secondary binding, serotonin transporter
Parameters: species or system human or rodent
Conditions: Receptor SERT; secondary assay; read-out: Ki (nM) 1
readout: Ki (nM)
Answer format: numeric, nM implied, no suffix.

Enquiry: Can you look up the measured Ki of CCCCNc1ncc2c(-c3ccc(CN4CCN(C)CC4)cc3)cn([C@H]3CC[C@H](O)CC3)c2n1 [UNC2025C, UNC2025] for me?
Return: 906

* * *

Biological target: dopamine transporter (Homo sapiens)
Construct: expressed in transfected cells
Sequence (Q01959 whole entry): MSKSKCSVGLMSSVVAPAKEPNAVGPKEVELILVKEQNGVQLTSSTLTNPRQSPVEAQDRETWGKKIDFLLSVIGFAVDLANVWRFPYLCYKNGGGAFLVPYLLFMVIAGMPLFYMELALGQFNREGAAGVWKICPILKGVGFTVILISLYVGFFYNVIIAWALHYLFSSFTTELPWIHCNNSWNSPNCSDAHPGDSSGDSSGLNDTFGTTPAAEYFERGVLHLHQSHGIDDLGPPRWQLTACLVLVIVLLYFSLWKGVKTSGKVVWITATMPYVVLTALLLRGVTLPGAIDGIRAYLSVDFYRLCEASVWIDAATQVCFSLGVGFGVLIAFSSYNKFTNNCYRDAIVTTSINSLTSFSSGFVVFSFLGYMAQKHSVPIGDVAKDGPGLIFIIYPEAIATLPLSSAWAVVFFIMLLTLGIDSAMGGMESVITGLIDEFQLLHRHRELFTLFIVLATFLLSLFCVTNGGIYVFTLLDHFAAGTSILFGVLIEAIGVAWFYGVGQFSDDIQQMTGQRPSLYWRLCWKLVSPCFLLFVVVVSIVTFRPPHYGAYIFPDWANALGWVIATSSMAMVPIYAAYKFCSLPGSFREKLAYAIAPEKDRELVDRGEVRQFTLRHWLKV
Test: PDSP secondary binding, dopamine transporter
Design: species or system human or rodent
Settings: LogKi 1, DAT; secondary assay, run 1; log Ki given with negative sign
readout: pKi
The read-out pKi is expressed as -log10 of concentration in moles per litre.

Enquiry: Can you look up the measured pKi of CC(=O)N1CCC(NC(=O)NC23CC4CC(CC(C4)C2)C3)CC1 [UNC10302683A, AR9281] for me?
Return: 5.24
